# key: entry, value: IC50
biological target: human CCR6 (Homo sapiens); construct: expressed in transfected cells; host or cells: HEK-293; test: FLIPR assay (inhibition of CCL20-induced calcium signal); type: cell-based; conditions: HEK-293 cells expressing human CCR6; mean values where determined several times; read-out: FLIPR IC50
Sequence (P51684 whole entry): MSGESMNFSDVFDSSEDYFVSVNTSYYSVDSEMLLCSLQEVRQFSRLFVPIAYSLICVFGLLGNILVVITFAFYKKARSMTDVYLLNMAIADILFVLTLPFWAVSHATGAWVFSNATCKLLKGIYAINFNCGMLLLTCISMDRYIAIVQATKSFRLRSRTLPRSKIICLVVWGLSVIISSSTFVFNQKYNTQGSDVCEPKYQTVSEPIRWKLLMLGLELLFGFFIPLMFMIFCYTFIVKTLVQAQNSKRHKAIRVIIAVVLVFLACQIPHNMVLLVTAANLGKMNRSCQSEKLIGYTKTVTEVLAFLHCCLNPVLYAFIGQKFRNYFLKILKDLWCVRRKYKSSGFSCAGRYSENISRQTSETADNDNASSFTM
readout-type: IC50

1) COC(=O)N1CCC(c2nc(-c3cncc([C@@](O)(c4ccc(C(C)C)cc4)C4(C)CN(C)C4)c3)no2)CC1 [Example 378] : 54.9 nM
2) CC(C)c1ccc([C@](O)(c2cncc(-c3noc(C4(O)CCOCC4)n3)c2)C2(C)CN(C)C2)cc1 [Example 502] : 65.8 nM
3) CC(C)c1ccc([C@](O)(c2cncc(CCC(C)(C)N3CCNC3=O)c2)C2(C)CN(C)C2)cc1 [Example 641] : 67 nM
4) CC(C)c1ccc([C@](O)(c2cncc(CC[C@@H](C)O)c2)C2(C)CN(C)C2)cc1 [Example 52] : 200 nM

The measured values listed here are drawn from patent US12617773B2.
